Provide the reported melting point of each item.

Per the record, CC(=O)SC12CCC=C1C(=O)NC2=O (centres unmarked) has melting point of 170 to 172 °C

Per the record, O=C(S[C@@]12CC[C@@H](O)[C@@H]1C(=O)NC2=O)c1ccc(F)cc1 (relative stereo) has melting point of 184 to 186 °C

Per the record, O=C(S[C@]12CCC[C@H]1C(=O)NC2=O)c1ccc(F)cc1 (relative stereo) has melting point of 186 to 187 °C

Per the record, O=C(S[C@@]12CC[C@@H](O)[C@@H]1C(=O)NC2=O)c1ccccc1Cl (relative stereo) has melting point of 154 to 158 °C

Per the record, O=C(S[C@@]12CC[C@@H](O)[C@@H]1C(=O)NC2=O)c1ccccc1O (relative stereo) has melting point of 213 to 216 °C

Per the record, O=C(S[C@]12CC[C@@H](O)[C@H]1C(=O)NC2=O)c1ccccc1 (relative stereo) has melting point of 185 to 186 °C

Per the record, O=C1NC(=O)C2=C1CCC2SC(=O)c1cccs1 (centres unmarked) has melting point of 138 to 139 °C

Per the record, O=C1NC(=O)C2=C1CCC2SC(=O)c1ccccc1 (centres unmarked) has melting point of 149 to 151 °C
